# Assayed Target: Ribosomal protein S6 kinase alpha-3 (Homo sapiens, UniProt P51812)
# Sequence (P51812 whole entry): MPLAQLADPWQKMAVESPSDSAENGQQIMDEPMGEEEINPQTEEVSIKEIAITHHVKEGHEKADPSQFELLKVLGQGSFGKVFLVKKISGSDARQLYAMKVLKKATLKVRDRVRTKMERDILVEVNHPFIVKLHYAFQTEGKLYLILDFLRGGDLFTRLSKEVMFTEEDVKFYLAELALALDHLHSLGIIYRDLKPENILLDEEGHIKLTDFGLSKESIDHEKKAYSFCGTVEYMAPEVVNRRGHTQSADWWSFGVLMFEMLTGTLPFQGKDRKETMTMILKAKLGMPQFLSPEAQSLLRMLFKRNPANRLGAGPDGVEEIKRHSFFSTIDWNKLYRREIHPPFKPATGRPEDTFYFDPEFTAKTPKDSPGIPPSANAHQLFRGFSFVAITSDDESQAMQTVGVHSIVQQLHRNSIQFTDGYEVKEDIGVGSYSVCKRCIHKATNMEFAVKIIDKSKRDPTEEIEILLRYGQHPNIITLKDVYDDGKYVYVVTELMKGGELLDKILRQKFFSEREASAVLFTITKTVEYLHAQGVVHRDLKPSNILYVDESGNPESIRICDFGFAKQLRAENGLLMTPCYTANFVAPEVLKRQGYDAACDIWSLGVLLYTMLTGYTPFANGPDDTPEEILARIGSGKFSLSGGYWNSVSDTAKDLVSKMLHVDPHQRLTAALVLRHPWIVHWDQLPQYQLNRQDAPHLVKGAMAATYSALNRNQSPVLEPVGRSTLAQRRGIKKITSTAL
# Assay Method Text: Inhibition of full length recombinant His-tagged human RSK2 expressed in baculovirus expression system using biotin-labelled AGAGRSRHSSYPAGT-OH as substrate in presence of ATP
Test Readout: IC50 (nM)

I = Oc1c(F)cc(-c2cnccc2-c2ccc(N3CCOCC3)cc2)cc1F
II = CN1CCN(c2ccc(-c3ccncc3-c3cc(F)c(O)c(F)c3)cc2)CC1
When I and II are compared, which has the higher number for IC50? Indicate your choice by writing its label.
I

---

# Assay Method Text: Half life in iv dosed Sprague-Dawley rat
# Format: ADME, organism-based
# Run Conditions: in vivo
Test Readout: half-life (min)
Please state the figure in min; there is no need to write the unit.

# query: half-life of entry CC(C)C1OC(=O)N(C2CCCC2)c2nc(Nc3cc(F)c(O)c(F)c3)ncc21 (stereo unspecified)
55.2

---

# System: TE-10
# Assay Method Text: Inhibition of cell invasion in human TE-10 cells measured after 24 hrs by Giemsa staining based transwell invasion assay
# Format: functional
# Run Conditions: TE-10, 24 h
Test Readout: pIC50
Conceptually, pIC50 converts a concentration in mol/L into minus its log10.

Notebook entry, TE-10 assay: pIC50 of CC(C)C1OC(=O)N(C2CCCC2)c2nc(Nc3cc(F)c(O)c(F)c3)ncc21 (stereo unspecified) = ?
6.01
